Where do these numbers come from? They come from patent US20260317309A1.

- TARGET ENTITY: human GLP-1 receptor (Homo sapiens, UniProt P43220)
- Construct: expressed in transfected cells
- Sequence (P43220 24-463): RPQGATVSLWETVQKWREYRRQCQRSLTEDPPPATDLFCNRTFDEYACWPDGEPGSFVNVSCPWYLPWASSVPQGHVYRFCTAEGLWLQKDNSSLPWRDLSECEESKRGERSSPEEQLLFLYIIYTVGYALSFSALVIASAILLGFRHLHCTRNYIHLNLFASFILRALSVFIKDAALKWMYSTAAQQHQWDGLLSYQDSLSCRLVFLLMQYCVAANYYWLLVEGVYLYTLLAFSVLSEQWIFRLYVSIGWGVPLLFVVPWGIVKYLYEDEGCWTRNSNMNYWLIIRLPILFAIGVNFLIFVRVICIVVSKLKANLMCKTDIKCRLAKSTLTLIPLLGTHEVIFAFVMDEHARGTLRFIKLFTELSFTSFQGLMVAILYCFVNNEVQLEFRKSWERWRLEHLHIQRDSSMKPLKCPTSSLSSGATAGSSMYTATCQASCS
- TEST: GLP-1R cAMP assay (cAMP accumulation in CHO cells stably overexpressing the human GLP-1 receptor, HitHunter kit)
- Format: cell-based
- CONDITIONS USED: CHO cells stably overexpressing human GLP-1R, 30 min, 20-point dose response in triplicate
pEC50: −log10 of the molar value.
Here the recorded pEC50 is given for each entry.

Provide measured pEC50 on human GLP-1 receptor (Homo sapiens, UniProt P43220) for C[C@H]1C[C@@H](Oc2nc(COc3ccc(F)cc3F)ncc2F)CCN1Cc1nc2ccc(C(=O)O)cc2n1C[C@@H]1CCO1 [Compound 581] please.
> 10.00

Provide measured pEC50 on human GLP-1 receptor (Homo sapiens, UniProt P43220) for C[C@H]1C[C@@H](Oc2ccnc(COc3ncc(C#N)cc3F)n2)CCN1Cc1nc2ccc(C(=O)O)cc2n1C[C@@H]1CCCO1 [Compound 631] please.
9.00 to 10.00

Provide measured pEC50 on human GLP-1 receptor (Homo sapiens, UniProt P43220) for C[C@H]1C[C@@H](Oc2ccnc(COc3ccc(F)cc3F)n2)CCN1Cc1nc2ccc(C(=O)NS(=O)(=O)C3CC3)cc2n1C[C@@H]1CCO1 [Compound 564] please.
9.00 to 10.00

---

- TARGET ENTITY: human GLP-1 receptor (Homo sapiens, UniProt P43220)
- TEST: GLP-1R cAMP assay (cAMP accumulation in CHO cells stably overexpressing the human GLP-1 receptor, HitHunter kit)
- CONDITIONS USED: CHO cells stably overexpressing human GLP-1R, 30 min, 20-point dose response in triplicate
pEC50: −log10 of the molar value.
Here the recorded pEC50 is given for each entry.

INSERT INTO measurements (compound, quantity_measured, endpoint_result) VALUES
  ('C[C@H]1C[C@@H](Oc2ccnc(COc3ccc(F)cc3F)n2)CCN1Cc1nc2ccc(C(=O)NS(C)(=O)=O)cc2n1C[C@@H]1CCO1 [Compound 563]', 'pEC50', '9.00 to 10.00');

Provide measured pEC50 on human GLP-1 receptor (Homo sapiens, UniProt P43220) for C[C@H]1C[C@@H](Oc2ccnc(COc3ncc(F)cc3F)n2)CCN1Cc1nc2c(F)cc(C(=O)O)cc2n1C[C@@H]1CCCO1 [Compound 622] please.
9.00 to 10.00

Provide measured pEC50 on human GLP-1 receptor (Homo sapiens, UniProt P43220) for C[C@H]1C[C@@H](Oc2ccnc(COc3ccc(F)cc3F)n2)CCN1Cc1nc2ccc(C(=O)NO)cc2n1C[C@@H]1CCO1 [Compound 559] please.
9.00 to 10.00

Provide measured pEC50 on human GLP-1 receptor (Homo sapiens, UniProt P43220) for C[C@@H](Cn1c(CN2CC[C@H](Oc3ccnc(COc4ccc(F)cc4F)n3)C[C@@H]2C)nc2ccc(C(=O)O)cc21)OC1CC1 [Compound 612] please.
8.00 to 9.00

---

- TARGET ENTITY: human GLP-1 receptor (Homo sapiens, UniProt P43220)
- TEST: GLP-1R cAMP assay (cAMP accumulation in CHO cells stably overexpressing the human GLP-1 receptor, HitHunter kit)
- CONDITIONS USED: CHO cells stably overexpressing human GLP-1R, 30 min, 20-point dose response in triplicate
pEC50: −log10 of the molar value.
QUANTITY MEASURED: pEC50

For orientation, consider the following solved cases.
INSERT INTO assay_data (structure_smiles, endpoint_result) VALUES
  ('C[C@H]1C[C@@H](Oc2ccnc(COc3ccc(F)cc3F)n2)CCN1Cc1nc2cc(F)c(C(=O)O)cc2n1C[C@@H]1CCO1', '9.00 to 10.00'),
  ('C[C@H]1C[C@@H](Oc2ccnc(COc3ccc(F)cc3F)n2)CCN1Cc1nc2ccc(C(=O)O)cc2n1CC1(C(F)F)COC1', '9.00 to 10.00'),
  ('C[C@H]1C[C@@H](Oc2ccnc(COc3ccc(F)cc3C#N)n2)CCN1Cc1nc2ncc(C(=O)O)cc2n1C[C@@H]1CCO1', '9.00 to 10.00'),
  ('C[C@H]1C[C@@H](Oc2ccnc(COc3ccc(C#N)cn3)n2)CCN1Cc1nc2ccc(C(=O)O)cc2n1C[C@@H]1CCO1', '9.00 to 10.00'),
  ('C[C@H]1C[C@@H](Oc2ccnc(COc3ncc(F)cc3F)n2)CCN1Cc1nc2c(F)cc(C(=O)O)cc2n1C[C@@H]1CCO1', '> 10.00');

# next compound below
Provide measured pEC50 on human GLP-1 receptor (Homo sapiens, UniProt P43220) for O=C(O)c1ccc2nc(CN3CC[C@H](Oc4ccnc(COc5ccc(Cl)cc5F)c4)C[C@@H]3CF)n(C[C@@H]3CCO3)c2c1 please.
> 10.00
